Assay Explanation: Metabolic stability test in liver S9
Assay type: in vitro ADME
Condition Parameters: pH 7.4; unchanged form after 60 minutes at 37°C, human liver S9 2 mg protein/mL, LC/MS; read-out: Remaining rate in human liver S9 (%/60min)
Parameter: remaining at 1 h (%)

Here's what some known entries look like.
So what's the measured remaining at 1 h for this one? COC(=O)c1ccc(OC(=O)CCc2ccc(NC(=O)c3ccccc3-c3ccc(C(F)(F)F)cc3)c(C(=O)N(C)C)c2)cc1 0

Next entry: COC(=O)c1ccc(OC(=O)CCCc2ccc(NC(=O)c3ccccc3-c3ccc(C(F)(F)F)cc3)c(C(=O)N(C)C)c2)cc1C(F)(F)F 0

a = COC(=O)c1ccc(OC(=O)CCCc2ccc(NC(=O)c3ccc(C)nc3-c3ccc(C(F)(F)F)cc3)c(C(=O)N(C)C)c2)cn1
b = CN(C)C(=O)c1cc(CCCC(=O)Oc2ccc(C(=O)OC3CCCc4ccccc43)cc2)ccc1NC(=O)c1ccccc1-c1ccc(C(F)(F)F)cc1 (stereo not drawn)
Which entry has a larger number for remaining at 1 h, a or b ? Write down the label of the entry you select. b

###

Assay Explanation: Stability test in buffer (pH 7.4)
Type: physicochemical
Condition Parameters: phosphate buffer/acetonitrile 7:3; 60 minutes at 37°C, 100 mM potassium phosphate buffer (pH 7.4) and acetonitrile 7:3 (v/v), LC/MS; read-out: Buf. remaining rate (%/60min)
Parameter: remaining at 1 h (%)

So what's the measured remaining at 1 h for this one? CC(=O)N1CCC(OC(=O)c2ccc(OC(=O)CCCc3ccc(NC(=O)c4ccccc4-c4ccc(C(F)(F)F)cc4)c(C(=O)N(C)C)c3)cc2)CC1 99

Next entry: CCc1cc(C(=O)OC)cc(C(=O)OC)c1OC(=O)CCCc1ccc(NC(=O)c2ccc(C)nc2-c2ccc(C(F)(F)F)cc2)c(C(=O)N(C)C)c1 101

Next entry: Cc1ccc(C(=O)Nc2ccc(CCCC(=O)Oc3ccc(C(=O)OCc4cccnc4)cc3)cc2C(=O)N(C)C)c(-c2ccc(C(F)(F)F)cc2)n1 102

Next entry: CC(=O)c1ccc(OC(=O)CCCc2ccc(NC(=O)c3ccccc3-c3ccc(C(F)(F)F)cc3)c(C(=O)N(C)C)c2)cc1 98

Next entry: CCCOC(=O)c1ccc(OC(=O)CCCc2ccc(NC(=O)c3ccccc3-c3ccc(C(F)(F)F)cc3)c(C(=O)N(C)C)c2)cc1 98

Next entry: COc1cc(C(=O)OCCNC(C)=O)cc(Cl)c1OC(=O)CCCc1ccc(NC(=O)c2ccc(C)nc2-c2ccc(C(F)(F)F)cc2)c(C(=O)N(C)C)c1 108

Next entry: CN(C)C(=O)c1cc(CCCC(=O)Oc2ccc(C(=O)OCC(=O)OCc3ccccc3)cc2)ccc1NC(=O)c1ccccc1-c1ccc(C(F)(F)F)cc1 97

Next entry: CCc1cc(C(=O)OC)ccc1OC(=O)CCCc1ccc(NC(=O)c2ccccc2-c2ccc(C(F)(F)F)cc2)c(C(=O)N(C)C)c1 105

Next entry: CCOC(=O)c1ccc(OC(=O)CCCc2ccc(NC(=O)c3ccccc3-c3ccc(C(F)(F)F)cc3)c(C(=O)N(C)C)c2)cc1 102

Next entry: Cc1noc(-c2ccc(OC(=O)CCCc3ccc(NC(=O)c4ccccc4-c4ccc(C(F)(F)F)cc4)c(C(=O)N(C)C)c3)cc2)n1 97

Next entry: COC(=O)c1ccc(OC(=O)CCCc2ccc(NC(=O)c3ccccc3-c3ccc(C(F)(F)F)cc3)c(C(=O)N(C)C)c2)cc1 101

Next entry: CCOC(=O)c1cc(C)c(OC(=O)CCCc2ccc(NC(=O)c3ccc(C)nc3-c3ccc(C(F)(F)F)cc3)c(C(=O)N(C)C)c2)c(C(=O)OC)c1 101

Next entry: COC(=O)c1ccc(OC(=O)CCc2ccc(NC(=O)c3ccccc3-c3ccc(C(F)(F)F)cc3)c(C(=O)N(C)C)c2)cc1 102

Next entry: CN(C)C(=O)c1cc(CCCC(=O)Oc2ccc(C(=O)OCc3ccc(C(=O)OC(C)(C)C)cc3)cc2)ccc1NC(=O)c1ccccc1-c1ccc(C(F)(F)F)cc1 111

Next entry: CCOC(=O)c1cc(OC)c(OC(=O)CCCc2ccc(NC(=O)c3ccc(C)nc3-c3ccc(C(F)(F)F)cc3)c(C(=O)N(C)C)c2)c(OC)c1 103

Next entry: COC(=O)COC(=O)c1ccc(OC(=O)CCCc2ccc(NC(=O)c3ccccc3-c3ccc(C(F)(F)F)cc3)c(C(=O)N(C)C)c2)cc1 103

Next entry: CCOC(=O)c1ccc(OC(=O)CCCc2ccc(NC(=O)c3ccc(C)nc3-c3ccc(C(F)(F)F)cc3)c(C(=O)N(C)C)c2)cc1 105

Next entry: CN(C)C(=O)c1cc(CCCC(=O)Oc2ccc(C(=O)OCc3ccsc3)cc2)ccc1NC(=O)c1ccccc1-c1ccc(C(F)(F)F)cc1 99

###

Assay Explanation: Metabolic stability test in liver S9
Type: in vitro ADME
Condition Parameters: pH 7.4; unchanged form after 10 minutes at 37°C, human liver S9 2 mg protein/mL, LC/MS; read-out: Remaining rate in human liver S9 (%/10min)
Parameter: remaining at 10 min (%)

So what's the measured remaining at 10 min for this one? CC(C)n1nnc(-c2ccc(OC(=O)CCCc3ccc(NC(=O)c4ccccc4-c4ccc(C(F)(F)F)cc4)c(C(=O)N(C)C)c3)cc2)n1 0

1 = CN(C)C(=O)c1cc(CCC(=O)Oc2ccccc2)ccc1NC(=O)c1ccccc1-c1ccc(C(F)(F)F)cc1
2 = COC(=O)c1cc(C)c(OC(=O)CCCc2ccc(NC(=O)c3ccc(C)nc3-c3ccc(C(F)(F)F)cc3)c(C(=O)N(C)C)c2)c(C(F)(F)F)c1
Which entry has a larger number for remaining at 10 min, 1 or 2 ? Write down the label of the entry you select. 2
(2: 12%, 1: 0%)

###

Assay Explanation: Metabolic stability test in plasma
Type: in vitro ADME, human
Condition Parameters: unchanged form after 10 minutes at 37°C in human plasma, LC/MS; read-out: Remaining rate in human plasma (%/10min)
Parameter: remaining at 10 min (%)

So what's the measured remaining at 10 min for this one? Cc1ccc(C(=O)Nc2ccc(CCCC(=O)Oc3ccc(C(=O)OC(C)C)cc3)cc2C(=O)N(C)C)c(-c2ccc(C(F)(F)F)cc2)n1 51

a = CC(=O)c1ccc(OC(=O)CCCc2ccc(NC(=O)c3ccccc3-c3ccc(C(F)(F)F)cc3)c(C(=O)N(C)C)c2)cc1
b = COc1cccc(COC(=O)c2ccc(OC(=O)CCCc3ccc(NC(=O)c4ccccc4-c4ccc(C(F)(F)F)cc4)c(C(=O)N(C)C)c3)cc2)c1
Which entry has a larger number for remaining at 10 min, a or b ? Write down the label of the entry you select. b
(b: 49%, a: 8%)

###

Assay Explanation: Metabolic stability test in plasma
Assay type: in vitro ADME, human
Condition Parameters: unchanged form after 60 minutes at 37°C in human plasma, LC/MS; read-out: Remaining rate in human plasma (%/60min)
Parameter: remaining at 1 h (%)

So what's the measured remaining at 1 h for this one? COC(=O)c1ccc(OC(=O)CCCc2ccc(NC(=O)c3ccccc3-c3ccc(C(F)(F)F)cc3)c(C(=O)N(C)C)c2)cc1C(F)(F)F 0

Next entry: CCc1cc(C(=O)OC)cc(F)c1OC(=O)CCCc1ccc(NC(=O)c2ccc(C)nc2-c2ccc(C(F)(F)F)cc2)c(C(=O)N(C)C)c1 0

a = Cc1cccc(COC(=O)c2ccc(OC(=O)CCCc3ccc(NC(=O)c4ccccc4-c4ccc(C(F)(F)F)cc4)c(C(=O)N(C)C)c3)cc2)n1
b = CC(C)OCCOC(=O)c1ccc(OC(=O)CCCc2ccc(NC(=O)c3ccccc3-c3ccc(C(F)(F)F)cc3)c(C(=O)N(C)C)c2)cc1
c = CN(C)C(=O)COC(=O)c1ccc(OC(=O)CCCc2ccc(NC(=O)c3ccccc3-c3ccc(C(F)(F)F)cc3)c(C(=O)N(C)C)c2)cc1
Form: Sort by [remaining at 1 h] Order [ ascending ] Respond with an ordered listing of the labels, as requested. a, b, c

###

Assay Explanation: Metabolic stability test in liver S9
Assay type: in vitro ADME
Condition Parameters: pH 7.4; unchanged form after 60 minutes at 37°C, human liver S9 2 mg protein/mL, LC/MS; read-out: Remaining rate in human liver S9 (%/60min)
Parameter: remaining at 1 h (%)

Here's what some known entries look like.
So what's the measured remaining at 1 h for this one? CCc1cc(C(=O)OC)cc(Cl)c1OC(=O)CCCc1ccc(NC(=O)c2ccc(C)nc2-c2ccc(C(F)(F)F)cc2)c(C(=O)N(C)C)c1 [Compound 1-73] 0

Next entry: COC(=O)c1ccc(OC(=O)CCCc2ccc(NC(=O)c3ccc(C)nc3-c3ccc(C(F)(F)F)cc3)c(C(=O)N(C)C)c2)c(C)c1 [Compound 1-69] 0

Next entry: CN(C)C(=O)c1cc(CCCC(=O)Oc2ccc(C(=O)OCc3cccnc3)cc2)ccc1NC(=O)c1ccccc1-c1ccc(C(F)(F)F)cc1 [Compound 1-83] 0

Next entry: CN(C)C(=O)c1cc(CCCC(=O)Oc2ccc(C(=O)OCc3ccccc3)cc2)ccc1NC(=O)c1ccccc1-c1ccc(C(F)(F)F)cc1 [Compound 1-24] 6

Next entry: COC(=O)c1cc(C(=O)OC(C)C)ccc1OC(=O)CCCc1ccc(NC(=O)c2ccc(C)nc2-c2ccc(C(F)(F)F)cc2)c(C(=O)N(C)C)c1 [Compound 1-72] 0

I = CN(C)C(=O)Cn1nnc(-c2ccc(OC(=O)CCCc3ccc(NC(=O)c4ccccc4-c4ccc(C(F)(F)F)cc4)c(C(=O)N(C)C)c3)cc2)n1 [Compound 1-105]
II = CN(C)C(=O)c1cc(CCCC(=O)Oc2ccc(C(=O)OCCOCc3ccccc3)cc2)ccc1NC(=O)c1ccccc1-c1ccc(C(F)(F)F)cc1 [Compound 1-89]
Param metric = remaining at 1 h; output whichever of I , II has the minimum value. Write down the label of the entry you select. I
